# credit: paper PMC2074590

assay text: Serum concentrations of ICI 182780 by radioimmunoassay (pharmacokinetics of monthly i.m. depot)
Format: in vivo, human
measurement conditions: human, serum, intramuscular, 250 mg, patient 19 (no change), 250 mg; read-out: Cmax at month 6
readout kind: Cmax (ng/mL)
Give the number; ng/mL is assumed, so skip it.

## Input Look at this compound and give its reported Cmax. C[C@]12CC[C@@H]3c4ccc(O)cc4C[C@@H](CCCCCCCCC[S+]([O-])CCCC(F)(F)C(F)(F)F)[C@H]3[C@@H]1CC[C@@H]2O (stereo partly shown) [ICI 182780]
## Output 17.2

###

assay text: Serum concentrations of ICI 182780 by radioimmunoassay (pharmacokinetics of monthly i.m. depot)
Type: in vivo, human
measurement conditions: human, serum, intramuscular, 250 mg, patient 13 (progressive disease), 250 mg; read-out: Cmax at month 6
Description: Bridsh Journal of Cancer (1996) 74, 300-308 ? […] The agent was administered as a monthly depot intramuscular injection. […] The study was approved by the ethics committees of each clinical centre. […] Tumour response to therapy was evaluated according to UICC criteria (Hayward et al., 1977). […] Body weight was recorded at each monthly review in the majority of patients. […] The study limit of quantification was 0.68 ng ml-'. […] Prolactin was measured by immunoradiometric assay using reagents supplied by Netria. […]
readout kind: Cmax (ng/mL)
Give the number; ng/mL is assumed, so skip it.

## Input Look at this compound and give its reported Cmax. C[C@]12CC[C@@H]3c4ccc(O)cc4C[C@@H](CCCCCCCCC[S+]([O-])CCCC(F)(F)C(F)(F)F)[C@H]3[C@@H]1CC[C@@H]2O (stereo partly shown) [ICI 182780]
## Output 15.8
